- TARGET_OR_TEST_SYSTEM: human IBAT (Homo sapiens)
- Sequence (Q12908 whole entry): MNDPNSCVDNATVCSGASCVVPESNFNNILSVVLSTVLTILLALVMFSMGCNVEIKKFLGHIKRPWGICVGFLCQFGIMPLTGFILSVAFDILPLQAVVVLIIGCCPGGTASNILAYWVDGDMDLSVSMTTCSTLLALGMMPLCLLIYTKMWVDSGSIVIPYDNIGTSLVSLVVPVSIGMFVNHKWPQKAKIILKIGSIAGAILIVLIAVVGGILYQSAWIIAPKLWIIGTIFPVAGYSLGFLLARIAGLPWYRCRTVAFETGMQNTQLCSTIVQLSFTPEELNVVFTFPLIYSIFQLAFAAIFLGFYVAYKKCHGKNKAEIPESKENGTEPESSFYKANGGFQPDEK
- ASSAY_COMMENT: In vitro assay of temporarily expressed human IBAT transporter using Cos 7 cells (Test Example 8)
- APPLIED_CONDITIONS: Cos 7 cells temporarily expressing human IBAT; [3H] taurocholate 8 μM, 37° C., 60 minutes
TEST_READOUT: IC50

Please review the entries below; each comes with its answer.
{"COMPOUND": "CCCCC1(CCCC)CS(=O)(=O)c2ccc(N(C)C)cc2C(c2cccc(NC(=S)Nc3ccc(C[N+]4(Cc5ccccc5)CCC(CO)CC4)cc3)c2)N1.[Br-] (stereo not drawn) [Example 3607]", "IC50": "41 nM"}
{"COMPOUND": "CCCCC1(CCCC)CS(=O)(=O)c2ccc(N(C)C)cc2C(c2cccc(NC(=S)NCCCCCC[N+](C)(C)Cc3ccccc3)c2)N1 (stereo not drawn) [Example 1555]", "IC50": "153 nM"}
{"COMPOUND": "CCCCCCCCC[N+](C)(C)Cc1ccc(NC(=S)Nc2cccc(C3NC(CCCC)(CCCC)CS(=O)(=O)c4ccc(N(C)C)cc43)c2)cc1 (stereo not drawn) [Example 3413]", "IC50": "73 nM"}
{"COMPOUND": "CCCCC1(CCCC)CS(=O)(=O)c2ccc(N(C)C)cc2C(c2cccc(NC(=S)Nc3ccc(C[N+](C)(C)Cc4cccs4)cc3)c2)N1 (stereo not drawn) [Example 3449]", "IC50": "55 nM"}
{"COMPOUND": "CCCCC1(CCCC)CS(=O)(=O)c2ccc(N(C)C)cc2C(c2cccc(NC(=S)Nc3ccc(C[n+]4ccc5c(c4)CCCC5)cc3)c2)N1 (stereo not drawn) [Example 4223]", "IC50": "25 nM"}

Fill blank: measured IC50 of the compound CCCCC1(CCCC)CS(=O)(=O)c2ccc(N(C)C)cc2C(c2cccc(NC(=S)Nc3ccc(C[n+]4cccc(Cc5ccccc5)c4)cc3)c2)N1 (stereo not drawn) [Example 3725] is ____.
52 nM

Returns the measured IC50 for the input compound. Input: CCCCC1(CCCC)CS(=O)(=O)c2ccc(N(C)C)cc2C(c2cccc(NC(=S)Nc3ccc(C[n+]4ccccc4CCC)cc3)c2)N1.[Br-] (stereo not drawn) [Example 5408]
32 nM

Look up IC50: CCCCC1(CCCC)CS(=O)(=O)c2ccc(N(C)C)cc2C(c2cccc(NC(=S)NCCCCC[N+](C)(C)Cc3ccccc3)c2)N1.[Br-] (stereo not drawn) [Example 1178]
93 nM

Which value of IC50 has been reported for C=Cc1ccc(C[N+](C)(C)Cc2cccc(NC(=S)Nc3cccc(C4NC(CCCC)(CCCC)CS(=O)(=O)c5ccc(N(C)C)cc54)c3)c2)cc1 (stereo not drawn) [Example 4263] in the records?
72 nM

Need IC50, item CCCCC1(CCCC)CS(=O)(=O)c2ccc(N(C)C)cc2C(c2cccc(NC(=S)Nc3cccc(C[n+]4ccc(-c5ccccc5)cc4)c3)c2)N1 (stereo not drawn) [Example 4534]
76 nM

# IC50 lookup, item CCCCC1(CCCC)CS(=O)(=O)c2ccc(N(C)C)cc2C(c2cccc(NC(=S)Nc3ccc(C[N+]4(Cc5ccccc5)CCC(CCO)CC4)cc3)c2)N1.[Br-] (stereo not drawn) [Example 3608]
59 nM

Look at this compound and give its reported IC50. CCCCC1(CCCC)CS(=O)(=O)c2ccc(N(C)C)cc2C(c2cccc(NC(=S)Nc3ccc(C[N+]4(CC)CCCC4)cc3)c2)N1 (stereo not drawn) [Example 3568]
94 nM
